Sourced from patent US20250249092A1

- systemName: T1, CAPRIN-1 on the cell membrane surface of human cancer cells (human, UniProt Q14444 2-709)
- T1 construct: whole, on cells; also called CAPRIN-1 protein
- T1 sequence (looked up): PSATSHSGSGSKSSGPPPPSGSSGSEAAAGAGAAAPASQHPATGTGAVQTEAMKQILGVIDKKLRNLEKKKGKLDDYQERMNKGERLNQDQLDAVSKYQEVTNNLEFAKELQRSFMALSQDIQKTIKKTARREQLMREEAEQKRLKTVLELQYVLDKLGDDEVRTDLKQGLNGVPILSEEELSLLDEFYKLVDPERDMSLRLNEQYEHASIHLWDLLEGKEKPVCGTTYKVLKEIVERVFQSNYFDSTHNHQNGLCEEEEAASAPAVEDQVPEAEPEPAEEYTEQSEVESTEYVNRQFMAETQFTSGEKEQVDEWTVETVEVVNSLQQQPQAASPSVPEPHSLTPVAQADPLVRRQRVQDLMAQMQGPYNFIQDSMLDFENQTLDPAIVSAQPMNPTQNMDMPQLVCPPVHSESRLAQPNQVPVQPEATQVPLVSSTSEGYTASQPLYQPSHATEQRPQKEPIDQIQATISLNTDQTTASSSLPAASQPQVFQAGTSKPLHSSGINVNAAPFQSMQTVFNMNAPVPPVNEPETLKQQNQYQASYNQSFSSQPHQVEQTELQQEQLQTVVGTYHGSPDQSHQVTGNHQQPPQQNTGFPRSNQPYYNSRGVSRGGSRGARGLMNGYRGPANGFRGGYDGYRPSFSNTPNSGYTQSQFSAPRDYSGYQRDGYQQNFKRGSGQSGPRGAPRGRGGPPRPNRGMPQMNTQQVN
- protocolSummary: BT474 cells, as shown in Example 5
valueType: binding result

Entry Conjugate 8 (antibody, human IgG1, V domains shown, humanized antibody #2 (human IgG1) + resiquimod, MC-Val-Cit-PAB linker) VH: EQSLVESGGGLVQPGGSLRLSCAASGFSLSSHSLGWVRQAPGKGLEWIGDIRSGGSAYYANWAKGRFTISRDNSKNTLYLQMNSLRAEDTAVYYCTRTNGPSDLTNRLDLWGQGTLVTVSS VL: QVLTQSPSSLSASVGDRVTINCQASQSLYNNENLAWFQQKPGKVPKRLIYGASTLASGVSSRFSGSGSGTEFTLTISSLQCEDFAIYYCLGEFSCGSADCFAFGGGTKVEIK , binding result reported as binds

Entry Conjugate 26 (antibody, human IgG1, V domains shown, humanized antibody #6 (V regions of #2; human IgG1 S239D/I332E) + resiquimod derivative, SATA and SMCC linkers) VH: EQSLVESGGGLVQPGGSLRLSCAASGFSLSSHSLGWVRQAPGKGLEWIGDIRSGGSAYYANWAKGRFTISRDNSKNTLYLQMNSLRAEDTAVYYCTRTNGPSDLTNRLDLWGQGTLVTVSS VL: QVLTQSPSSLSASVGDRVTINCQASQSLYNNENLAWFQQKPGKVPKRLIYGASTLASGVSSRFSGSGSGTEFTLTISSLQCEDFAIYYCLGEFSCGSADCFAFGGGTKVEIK , binding result reported as binds

Entry Conjugate 22 (antibody, human IgG1, V domains shown, humanized antibody #2 (human IgG1) + resiquimod derivative, SATA and SMCC linkers) VH: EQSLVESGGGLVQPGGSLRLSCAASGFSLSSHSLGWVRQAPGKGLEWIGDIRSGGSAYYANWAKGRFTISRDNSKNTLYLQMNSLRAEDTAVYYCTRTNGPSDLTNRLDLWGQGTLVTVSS VL: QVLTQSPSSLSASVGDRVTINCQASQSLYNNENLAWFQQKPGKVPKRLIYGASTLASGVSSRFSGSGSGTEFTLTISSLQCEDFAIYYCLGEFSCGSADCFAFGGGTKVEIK , binding result reported as binds

Entry Conjugate 12 (antibody, human IgG1, V domains shown, humanized antibody #6 (V regions of #2; human IgG1 S239D/I332E) + resiquimod, MC-Val-Cit-PAB linker) VH: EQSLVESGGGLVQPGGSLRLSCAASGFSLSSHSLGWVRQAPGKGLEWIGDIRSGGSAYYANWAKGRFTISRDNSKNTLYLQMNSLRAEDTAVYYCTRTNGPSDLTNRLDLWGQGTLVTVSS VL: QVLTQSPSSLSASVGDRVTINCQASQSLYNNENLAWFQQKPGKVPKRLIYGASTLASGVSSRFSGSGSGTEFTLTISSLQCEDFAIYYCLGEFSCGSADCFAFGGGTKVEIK , binding result reported as binds
